This section presents compounds with their documented EC50 values.
- Tested on: CEM/VLB1000
- assay.explanation: Cytotoxicity potentiation (alamar blue) of vinblastine in multidrug-resistant cells
- Format: cell-based
- assay.setup: midpoint of minimum and maximum cytotoxicity induced by 3-5 μg/mL vinblastine and compound, 48 h

# compound, EC50 / nM
measured = [
    ("CCN(CC)c1ccc(-c2[nH]c(-c3ccc(/C=C/C(=O)OC)cc3)nc2-c2ccc(NC)cc2)cc1 [Example 40]", 226),
    ("CNc1ccc(-c2[nH]c(-c3ccc(F)c(/C=C/C(=O)OC)c3)nc2-c2ccc(N(C)C)cc2)cc1 [Example 59]", 570),
    ("COC(=O)/C=C/c1cc(-c2nc(-c3ccc(N(C)C)cc3)c(-c3ccc(N(C)C)cc3)[nH]2)cc(OC)c1OC [Example 57]", 453),
    ("COCCOc1ccc(-c2nc(-c3ccc(N(C)C)cc3)c(-c3ccc(N(C)C)cc3)[nH]2)cc1OC [Example 72]", 160),
    ("CNc1ccc(-c2[nH]c(-c3ccc(/C=C/C(=O)OC)cc3)nc2-c2ccc(NC(C)C)cc2)cc1 [Example 47]", 194),
    ("COC(=O)/C=C/c1ccc(-c2nc(-c3ccc(N(C)C)cc3)c(-c3ccc(N(C)C)cc3)[nH]2)s1 [Example 61]", 217),
    ("CNc1ccc(-c2[nH]c(-c3ccc(/C=C/C(=O)OC)cc3)nc2-c2ccc(NC(C)(C)C)cc2)cc1 [Example 48]", 240),
    ("CCN(CC)c1ccc(-c2nc(-c3ccc(/C=C/C(=O)OC(C)C)cc3)[nH]c2-c2ccc(NC)cc2)cc1 [Example 41]", 420),
]

---

This section presents compounds with their documented pEC50 values.
- Test system: CEM/VLB1000
- assay.explanation: Cytotoxicity potentiation (alamar blue) of vinblastine in multidrug-resistant cells
- Format: cell-based
- assay.setup: midpoint of minimum and maximum cytotoxicity induced by 3-5 μg/mL vinblastine and compound, 48 h
pEC50: −log10 of the molar value.

# smiles, pEC50
rows = [
    ("CCCN(C)c1ccc(-c2nc(-c3ccc(/C=C/C(=O)OC)cc3)[nH]c2-c2ccc(NC)cc2)cc1", 6.83),
    ("CCN(CC)c1ccc(-c2[nH]c(-c3ccc(/C=C/C(=O)OC)cc3)nc2-c2ccc(N)cc2)cc1", 6.56),
    ("COc1ccc(/C=C/C(=O)OC(C)C)cc1-c1nc(-c2ccc(N(C)C)cc2)c(-c2ccc(N(C)C)cc2)[nH]1", 6.41),
    ("COC(=O)/C=C/c1cc(-c2nc(-c3ccc(N(C)C)cc3)c(-c3ccc(N(C)C)cc3)[nH]2)ccc1F", 6.87),
    ("CCOCCCc1ccc(-c2nc(-c3ccc(N(C)C)cc3)c(-c3ccc(N(C)C)cc3)[nH]2)cc1", 6.68),
    ("CC(C)OC(=O)/C=C/c1ccc(-c2nc(-c3ccc(N(C)C)cc3)c(-c3ccc(N(C)C)cc3)[nH]2)cc1", 6.86),
    ("CN(C)c1ccc(-c2nc(-c3ccc(/C=C/C(=O)OCCc4ccccc4)cc3)[nH]c2-c2ccc(N(C)C)cc2)cc1", 5.92),
]

---

- Tested on: CEM/VLB1000
- assay.explanation: Cytotoxicity potentiation (alamar blue) of vinblastine in multidrug-resistant cells
- Type: cell-based
- assay.setup: midpoint of minimum and maximum cytotoxicity induced by 3-5 μg/mL vinblastine and compound, 48 h

# smiles, EC50 (µM)
rows = [
    ("CN(C)c1ccc(-c2nc(-c3ccc(/C=C/C(=O)OCc4ccccc4)cc3)[nH]c2-c2ccc(N(C)C)cc2)cc1", 0.33),
    ("CCCCOc1ccc(-c2nc(-c3ccc(N(C)C)cc3)c(-c3ccc(N(C)C)cc3)[nH]2)cc1", 0.43),
    ("COCCOc1ccc(-c2nc(-c3ccc(N(C)C)cc3)c(-c3ccc(N(C)C)cc3)[nH]2)cc1", 0.17),
    ("CNc1ccc(-c2nc(-c3ccc(/C=C/C(=O)OC)cc3)[nH]c2-c2ccc(F)cc2)cc1", 0.63),
    ("CCN(CC)c1ccc(-c2nc(-c3ccc(/C=C/C(=O)OC)cc3)[nH]c2-c2ccc(N(CC)CC)cc2)cc1", 0.675),
    ("COCCCc1ccc(-c2nc(-c3ccc(N(C)C)cc3)c(-c3ccc(N(C)C)cc3)[nH]2)cc1", 0.205),
    ("CC(C)OC(=O)/C=C/c1ccc(-c2nc(-c3ccc(N(C)C)cc3)c(-c3ccc(N(C)C)cc3)[nH]2)s1", 0.211),
    ("CCN(CC)c1ccc(-c2nc(-c3ccc(/C=C/C(=O)OC)cc3)[nH]c2-c2ccc(N(C)C)cc2)cc1", 0.225),
    ("COC(=O)/C=C/c1cc(-c2nc(-c3ccc(N(C)C)cc3)c(-c3ccc(N(C)C)cc3)[nH]2)ccc1OC", 0.37),
    ("COC(=O)/C=C/c1ccc(OC)c(-c2nc(-c3ccc(N(C)C)cc3)c(-c3ccc(N(C)C)cc3)[nH]2)c1", 0.126),
    ("CNc1ccc(-c2[nH]c(-c3ccc(/C=C/C(=O)OC)cc3)nc2-c2ccc(N(C)C)cc2)cc1", 0.17),
    ("COC(=O)/C=C/c1ccc(-c2nc(-c3ccc(N(C)C)cc3)c(-c3ccc(N(C)C)cc3)[nH]2)c(F)c1", 0.613),
    ("COC(=O)/C=C/c1ccc(-c2nc(-c3ccc(N)cc3)c(-c3ccc(N(C)C)cc3)[nH]2)cc1", 0.48),
    ("CCCN(CCC)c1ccc(-c2[nH]c(-c3ccc(/C=C/C(=O)OC)cc3)nc2-c2ccc(NC)cc2)cc1", 0.165),
    ("COC(=O)/C=C/c1cccc(-c2nc(-c3ccc(N(C)C)cc3)c(-c3ccc(N(C)C)cc3)[nH]2)c1", 0.256),
]
